// log10(Ki) lookup, one value per entry
Target: human 5-hydroxy-tryptamine2C (h5HT2C) receptor (Homo sapiens, UniProt P28335)
Construct: expressed in transfected cells; host or cells: CHO (Chinese Hamster Ovary) cells; membranes
Sequence (P28335 33-458): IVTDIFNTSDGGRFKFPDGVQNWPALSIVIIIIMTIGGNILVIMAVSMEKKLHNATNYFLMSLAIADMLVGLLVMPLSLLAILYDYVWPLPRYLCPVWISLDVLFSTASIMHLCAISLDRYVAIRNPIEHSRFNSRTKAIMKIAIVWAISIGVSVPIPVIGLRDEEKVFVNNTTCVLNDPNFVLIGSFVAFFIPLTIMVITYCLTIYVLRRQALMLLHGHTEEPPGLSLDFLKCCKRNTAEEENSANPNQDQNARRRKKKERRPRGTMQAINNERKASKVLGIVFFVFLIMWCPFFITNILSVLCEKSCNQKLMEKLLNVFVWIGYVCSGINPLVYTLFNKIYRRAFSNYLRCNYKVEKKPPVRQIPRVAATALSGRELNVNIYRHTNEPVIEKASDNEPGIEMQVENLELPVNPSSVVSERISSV
Assay: 5HT2C Receptor Binding Test Procedure ([125I] DOI)
Details: read-out: 5HT2C Affinity DOI/Agonist binding (Ki); [125I] DOI agonist binding
Counter-ions that a name gives are not always drawn.
property.label: log10(Ki) (log10 of the value in µM)

{"compound": "O=C1Nc2cc(Cl)c(Cl)cc2N2CCNC[C@@H]12 [Example 3]", "measured.result": -1.18}
{"compound": "O=C1Nc2cc(F)c(F)cc2N2CCNCC12 (stereo not drawn) [Example 13]", "measured.result": -1.04}
{"compound": "O=C1Nc2cc(C(F)(F)F)c(Cl)cc2N2CCNC[C@H]12 [Example 9, Hydrochloride]", "measured.result": -1.60}
{"compound": "Clc1cc2c(cc1Cl)N1CCNCC1CN2 (stereo not drawn) [Example 4, dihydrochloride]", "measured.result": -3.00}
{"compound": "Cl.O=C1Nc2c(Cl)cc(Cl)cc2N2CCNCC12 (stereo not drawn) [Example 11, Hydrochloride]", "measured.result": -1.70}
{"compound": "O=C1Nc2cc(C(F)(F)F)c(Cl)cc2N2CCNC[C@@H]12 [Example 8, Hydrochloride]", "measured.result": -0.29}

* * *

The entries below come with measured EC50 values attached.
Biological target: human 5-HT2C receptor (Homo sapiens)
Construct: expressed in transfected cells; host or cells: CHO cells
Assay: Stimulation of [3H] Inositol Monophosphate Production by 5HT2C Agonists
Assay type: cell-based
Details: CHO cells expressing human 5-HT2C; read-out: Stimulation of IP3 (EC50)
Structures can show the parent of a compound that is named as a salt.

{"compound": "O=C1Nc2cc(Cl)c(Cl)cc2N2CCNC[C@H]12", "EC50": "0.00792 µM"}
{"compound": "O=C1Nc2cc(C(F)(F)F)c(Cl)cc2N2CCNC[C@@H]12 [Example 8, Hydrochloride]", "EC50": "2.61 µM"}
{"compound": "O=C1Nc2cc(C(F)(F)F)c(Cl)cc2N2CCNC[C@H]12 [Example 9, Hydrochloride]", "EC50": "0.0188 µM"}
{"compound": "O=C1Nc2cc(Cl)c(Cl)cc2N2CCNC[C@@H]12", "EC50": "0.289 µM"}
{"compound": "O=C1Nc2cc(C(F)(F)F)c(Cl)cc2N2CCNCC12 (stereo not drawn) [Example 7, Hydrochloride]", "EC50": "0.0973 µM"}
{"compound": "O=C1Nc2cc(Cl)c(Cl)cc2N2CCNCC12 (stereo not drawn)", "EC50": "0.012 µM"}
